Reported Kd values for the following binders.
testedOn: T1, Human trkC-Fc fusion protein (human, UniProt Q16288 32-429)
T1 construct: Immobilised on CM5 chip for BIAcore; also called htrkC; not shown: Fc part not described
experimentDescription: BIAcore SPR, human trkC-Fc on chip; KD calculated from koff with 2256 kon 5E5 1/Ms
Answer format: numeric, nM implied, no suffix.

binder	unitString	Kd
Fab clone 129(T6) (Fab, V domains shown) VH: QVQLVQSGAEVKKPGASVKVSCKASGYTFTSYWMHWVRQAPGQGLEWMGEIYPSNGRTNYNEKFKSRVTMTGDTSTSTVYMQLSSLRSEDTAVYYCARKYYYGNSKRSWYFDVWGQGTTVTVS VL: DIQMTQSPSSLSASVGDRVTITCRASESVDNYGISFMNWYQQKPGQAPKLLIYAASNQGSGVPSRFSGSGSGTDFTFTISSLQPEDIATYYCQQSKEVPRTFGQGTKLEIKR	nM	6.4
Fab clone 129(C28) (Fab, V domains shown) VH: QVQLVQSGAEVKKPGASVKVSCKASGYTFTSYWMHWVRQAPGQGLEWMGEIYPSNGRTNYNEKFKSRATMTGDTSTSTVYMQLSSLRSEDTAVYYCARKYYYGNSQRSWYFDVWGQGTTVTVS VL: DIQMTQSPSSLSASVGDRVTITCRASESVDNYGISFMNWYQQKPGQAPKLLIYAASNQGSGVPSRFSGSGSGTDFTFTISSLQPEDIATYYCQQSKTVPRTFGQGTKLEIKR	nM	3.6
Fab clone 129(T8)(E12) (Fab, V domains shown) VH: QVQLVQSGAEVKKPGASVKVSCKASGYTFTSYWLHWVRQAPGQGLEWMGEIYPSNSRTNYNEKFKSRATMTGDKSTSTVYMELSSLRSEDTAVYYCARKYYYGNSRRSWYFDVWGQGTTVTVS VL: DIQMTQSPSSLSASVGDRVTITCRASESVDSYGISFMNWYQQKPGKAPKLLIYAASNLGSGVPSRFSGSGSGTDFTFTISSLQPEDIATYYCQQSKTVPRTFGQGTKLEIKR	nM	1.8

stdin: Recorded Kd of Fab clone 129(T8)(H8xE10)(9A) (Fab, V domains shown) VH: QVQLVQSGAEVKKPGASVKVSCKASGYTFTSYRIHWVRQAPGQGLEWMGEIYPSNSRTNYNEKFKSRATMTRDKSTSTVYMELSSLRSEDTAVYYCARKYYYGNSRRSWYFDVWGQGTTVTVS VL: DIQMTQSPSSLSASVGDRVTITCRASESIDNYGISFLAWYQQKPGKAPKLLIYAASNRGSGVPSRFSGSGSGTDFTFTISSLQPEDIATYYCQQSKTVPRTFGQGTKLEIKR , please.
stdout: 0.6

stdin: Recorded Kd of Fab clone 129(T8)(H8) (Fab, V domains shown) VH: QVQLVQSGAEVKKPGASVKVSCKASGYTFTSYRIHWVRQAPGQGLEWMGEIYPSNSRTNYNEKFKSRATMTGDKSTSTVYMELSSLRSEDTAVYYCARKYYYGNSRRSWYFDVWGQGTTVTVS VL: DIQMTQSPSSLSASVGDRVTITCRASESVDNYGISFMTWYQQKPGKAPKLLIYAASNLGSGVPSRFSGSGSGTDFTFTISSLQPEDIATYYCQQSKTVPRTFGQGTKLEIKR , please.
stdout: 1.2

stdin: Recorded Kd of Fab clone 129(C26) (Fab, V domains shown) VH: QVQLVQSGAEVKKPGASVKVSCKASGYTFTSYWMHWVRQAPGQGLEWMGEIYPSNGRTNYNEKFKSRVTMTGDKSTSTVYMELSSLRSEDTAVYYCARKYYYGNSSRSWYFDVWGQGTTVTVS VL: DIQMTQSPSSLSASVGDRVTITCRASESVDNYGISFMNWYQQKPGQAPKLLIYAASNQGSGVPSRFSGSGSGTDFTFTISSLQPEDIATYYCQQSKSVPRTFGQGTKLEIKR , please.
stdout: 13.2
